- TEST TARGET: T1, human CD27 (human, UniProt P26842 21-260)
- T1 construct: also called hCD27; HsCD27
- EXPERIMENT NOTES: cell ELISA on human CD27 CHOK1 cells, hIgG4
VALUE KIND: pEC50
# pEC50: negative log10 of molar concentration; output just the value

Reference set (2 entries):
hCD27.131A VH7VL6 huIgG4 (antibody, V domains shown) VH: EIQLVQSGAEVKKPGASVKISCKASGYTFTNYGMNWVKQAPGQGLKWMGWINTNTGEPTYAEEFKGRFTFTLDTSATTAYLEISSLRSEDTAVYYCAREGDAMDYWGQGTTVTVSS VL: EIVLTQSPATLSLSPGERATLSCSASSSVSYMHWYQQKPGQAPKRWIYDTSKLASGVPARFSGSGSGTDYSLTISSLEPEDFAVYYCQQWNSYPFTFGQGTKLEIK; 10.38
hCD27.131A VH8VL7 huIgG4 (antibody, V domains shown) VH: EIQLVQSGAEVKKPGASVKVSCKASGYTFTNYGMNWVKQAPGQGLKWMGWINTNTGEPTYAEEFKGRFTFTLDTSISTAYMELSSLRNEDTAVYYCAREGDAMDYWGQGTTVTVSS VL: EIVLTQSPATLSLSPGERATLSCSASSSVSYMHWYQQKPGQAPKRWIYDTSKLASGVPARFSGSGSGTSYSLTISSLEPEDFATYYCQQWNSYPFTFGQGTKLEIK; 10.06

Moving on to another binder below.
Prompt: Give pEC50 for hCD27.131A VH6VL7 huIgG4 (antibody, V domains shown) VH: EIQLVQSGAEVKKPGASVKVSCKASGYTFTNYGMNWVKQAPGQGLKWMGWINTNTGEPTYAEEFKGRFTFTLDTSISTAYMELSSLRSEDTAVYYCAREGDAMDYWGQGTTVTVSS VL: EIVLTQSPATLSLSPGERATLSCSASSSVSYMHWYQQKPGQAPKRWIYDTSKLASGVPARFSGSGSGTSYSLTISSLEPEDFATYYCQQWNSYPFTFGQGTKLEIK
Response: 9.88
